test.protocol: Brain concentration in rat at 5 mg/kg, po measured after 30 mins
Type: ADME, organism-based
measurement.context: read-out: Ct
measure: concentration at 0.5 h

Which measured concentration at 0.5 h value corresponds to CCOc1ccc(NC(=O)C(C)C)cc1C(=O)NC(C)c1cccc(NC)c1 (stereo unspecified) ? 54.9 ng/g

====

test.protocol: Plasma concentration in rat at 5 mg/kg, po measured after 30 mins
Type: ADME, organism-based
measure: concentration at 0.5 h
Express your answer as a number followed by its unit.

Which measured concentration at 0.5 h value corresponds to CCOc1ccc(NC(=O)C(C)C)cc1C(=O)NC(C)c1cccc(NC)c1 (stereo unspecified) ? 580 ng/mL

====

Kindly state IC50 for each of the entries shown.
target.or.system: Potassium voltage-gated channel subfamily B member 1 (Homo sapiens, UniProt Q14721)
test.protocol: Inhibition of human KV2.1 stably expressed in HEK293 cells by whole cell patch-clamp assay

compound	target.or.system	result.value
CCOc1ccc(NC(C)=O)cc1C(=O)NC(C)c1cccc(-c2nccs2)c1 (stereo unspecified)	Potassium voltage-gated channel subfamily B member 1 (Homo sapiens, UniProt Q14721)	~10000 nM
CCOc1ccc(NC(=O)C(C)C)cc1C(=O)NC(C)c1cncc(C)n1 (stereo unspecified)	Potassium voltage-gated channel subfamily B member 1 (Homo sapiens, UniProt Q14721)	> 1000 nM
CC(C)C(=O)Nc1ccc(N(C)C)c(C(=O)NCc2cccc3ccccc23)c1	Potassium voltage-gated channel subfamily B member 1 (Homo sapiens, UniProt Q14721)	> 1000 nM
CCOc1ccc(NC(=O)C(C)C)cc1C(=O)NC(C)c1ccccc1 (stereo unspecified)	Potassium voltage-gated channel subfamily B member 1 (Homo sapiens, UniProt Q14721)	~1000 nM
CC(C)COc1ccc(NC(=O)C(C)C)cc1C(=O)NC(C)c1cccc(-c2nccs2)c1 (stereo unspecified)	Potassium voltage-gated channel subfamily B member 1 (Homo sapiens, UniProt Q14721)	> 1000 nM

// below: IC50 requested for another compound
Form field - read-out: IC50; system: Potassium voltage-gated channel subfamily B member 1 (Homo sapiens, UniProt Q14721); submitted item: CCOc1ccc(NC(=O)C(C)C)cc1C(=O)NC(C)c1cccc(Cl)n1 (stereo unspecified) ~1000 nM

====

Kindly state pIC50 for each of the entries shown.
target.or.system: Potassium voltage-gated channel subfamily B member 1 (Homo sapiens)
Sequence (Q14721 whole entry): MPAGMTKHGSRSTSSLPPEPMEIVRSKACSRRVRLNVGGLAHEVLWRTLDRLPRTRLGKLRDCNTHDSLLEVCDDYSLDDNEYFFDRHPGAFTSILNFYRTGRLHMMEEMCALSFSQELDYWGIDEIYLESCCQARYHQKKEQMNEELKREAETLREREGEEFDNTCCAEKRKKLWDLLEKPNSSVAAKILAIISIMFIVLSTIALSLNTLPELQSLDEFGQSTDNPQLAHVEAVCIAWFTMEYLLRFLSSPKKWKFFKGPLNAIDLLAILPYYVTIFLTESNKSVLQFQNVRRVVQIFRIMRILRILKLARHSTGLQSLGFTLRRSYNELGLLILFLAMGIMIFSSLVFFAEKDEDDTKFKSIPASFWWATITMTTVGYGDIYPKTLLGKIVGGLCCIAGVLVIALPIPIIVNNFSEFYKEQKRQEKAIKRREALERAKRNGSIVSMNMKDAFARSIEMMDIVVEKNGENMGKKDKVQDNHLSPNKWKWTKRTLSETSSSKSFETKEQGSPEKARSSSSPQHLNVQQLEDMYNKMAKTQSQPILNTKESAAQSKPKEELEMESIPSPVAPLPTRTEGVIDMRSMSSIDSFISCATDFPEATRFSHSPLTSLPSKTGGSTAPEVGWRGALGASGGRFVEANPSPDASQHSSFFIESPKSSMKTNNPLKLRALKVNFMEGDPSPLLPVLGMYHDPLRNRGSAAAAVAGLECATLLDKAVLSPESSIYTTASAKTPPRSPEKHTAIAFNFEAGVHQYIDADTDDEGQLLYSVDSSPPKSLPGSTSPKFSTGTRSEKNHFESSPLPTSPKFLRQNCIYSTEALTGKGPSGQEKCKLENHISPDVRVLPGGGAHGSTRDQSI
test.protocol: Inhibition of human KV2.1 stably expressed in HEK293 cells by whole cell patch-clamp assay
pIC50: −log10 of the molar value.

Example cases with answers are listed next.
molecule	target.or.system	pIC50
CCOc1ccc(NC(=O)C(C)C)cc1C(=O)NCc1cccc(-c2ccccn2)c1	Potassium voltage-gated channel subfamily B member 1 (Homo sapiens)	< 6.00
CCOc1ccc(NC(=O)C(C)C)cc1C(=O)NC(C)c1ccnc(OC)n1 (centres undefined)	Potassium voltage-gated channel subfamily B member 1 (Homo sapiens)	~6.00
CCOc1ccc(NC(=O)C(C)C)cc1C(=O)NC(C)c1cccc(Br)c1 (centres undefined)	Potassium voltage-gated channel subfamily B member 1 (Homo sapiens)	~6.00

// below: pIC50 requested for another molecule
Which measured pIC50 value corresponds to CC(C)C(=O)Nc1ccc(OCC(F)(F)F)c(C(=O)NC(C)c2cccc(-c3nccs3)c2)c1 (centres undefined) ? < 6.00

====

target.or.system: Potassium voltage-gated channel subfamily B member 1 (Homo sapiens, UniProt Q14721)
Sequence (Q14721 whole entry): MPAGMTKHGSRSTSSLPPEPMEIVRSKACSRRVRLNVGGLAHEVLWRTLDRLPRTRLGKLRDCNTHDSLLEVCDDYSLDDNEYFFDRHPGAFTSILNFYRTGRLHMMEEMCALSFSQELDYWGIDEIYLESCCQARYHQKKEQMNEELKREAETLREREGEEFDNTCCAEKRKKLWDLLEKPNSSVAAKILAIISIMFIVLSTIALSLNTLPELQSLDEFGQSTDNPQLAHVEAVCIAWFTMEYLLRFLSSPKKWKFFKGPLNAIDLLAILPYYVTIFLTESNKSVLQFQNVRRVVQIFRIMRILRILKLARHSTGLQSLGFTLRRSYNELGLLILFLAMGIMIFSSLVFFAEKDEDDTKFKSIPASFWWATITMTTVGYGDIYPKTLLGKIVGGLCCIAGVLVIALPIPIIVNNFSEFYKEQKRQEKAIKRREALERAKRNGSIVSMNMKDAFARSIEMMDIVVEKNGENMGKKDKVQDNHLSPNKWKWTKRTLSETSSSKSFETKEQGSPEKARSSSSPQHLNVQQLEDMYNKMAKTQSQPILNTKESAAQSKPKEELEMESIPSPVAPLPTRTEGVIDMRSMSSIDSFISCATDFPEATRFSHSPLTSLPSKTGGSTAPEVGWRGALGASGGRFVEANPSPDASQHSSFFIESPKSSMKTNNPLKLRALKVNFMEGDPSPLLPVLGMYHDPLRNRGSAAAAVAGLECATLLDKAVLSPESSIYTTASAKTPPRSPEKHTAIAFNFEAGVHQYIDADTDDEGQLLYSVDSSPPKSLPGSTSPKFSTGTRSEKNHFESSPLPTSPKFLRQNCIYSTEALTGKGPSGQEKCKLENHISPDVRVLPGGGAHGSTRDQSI
test.protocol: Inhibition of human KV2.1 stably expressed in HEK293 cells by whole cell patch-clamp assay
Type: cell-based
pIC50: −log10 of the molar value.
Kindly state pIC50 for each of the entries shown.

Example cases with answers are listed next.
molecule	target.or.system	pIC50
CCOc1ccc(NC(=O)C(C)C)cc1C(=O)NCc1cccc(N2CCCC2)c1	Potassium voltage-gated channel subfamily B member 1 (Homo sapiens, UniProt Q14721)	~6.00
CCOc1ccc(NC(=O)C(C)C)cc1C(=O)NC(C)c1cccc(N2CCCC2)c1 (configuration not stated)	Potassium voltage-gated channel subfamily B member 1 (Homo sapiens, UniProt Q14721)	~6.00
CC(C)C(=O)Nc1ccc(N(C)C)c(C(=O)NCc2cccnc2)c1	Potassium voltage-gated channel subfamily B member 1 (Homo sapiens, UniProt Q14721)	< 6.00
CCOc1ccc(NC(=O)C(C)C)cc1C(=O)NC(C)c1cccc(Br)n1 (configuration not stated)	Potassium voltage-gated channel subfamily B member 1 (Homo sapiens, UniProt Q14721)	~6.00
CC(C)Oc1ccc(NC(=O)C(C)C)cc1C(=O)NC(C)c1cccc(-c2nccs2)c1 (configuration not stated)	Potassium voltage-gated channel subfamily B member 1 (Homo sapiens, UniProt Q14721)	< 6.00
CCOc1ccc(NC(=O)C(C)C)cc1C(=O)NC(C)c1ccnc(C)n1 (configuration not stated)	Potassium voltage-gated channel subfamily B member 1 (Homo sapiens, UniProt Q14721)	~6.00

For each listed entry, give its pIC50.
1. CC(C)C(=O)Nc1cccc(C(=O)NC(C)c2cccc(-c3nccs3)c2)c1 (configuration not stated)
2. CCOc1ccc(NC(=O)C(C)C)cc1C(=O)NC(C)c1ccnc(Cl)n1 (configuration not stated)
3. CC(C)C(=O)Nc1ccc(N(C)C)c(C(=O)NCc2cccc(-c3ccco3)c2)c1
4. CC(C)C(=O)Nc1ccc(OCC(F)(F)F)c(C(=O)NCc2cccc(-c3nccs3)c2)c1
5. CCOc1ccc(NC(=O)CC)cc1C(=O)NC(C)c1cccc(-c2nccs2)c1 (configuration not stated)
6. CCOc1ccc(NC(=O)C2CCCC2)cc1C(=O)NC(C)c1cccc(-c2nccs2)c1 (configuration not stated)

["< 6.00", "~6.00", "< 6.00", "< 6.00", "~5.00", "< 5.00"]
